This collection of values is drawn from paper PMC9268305.

Experiment: PK of TIPP via subcutaneous injection in mice
Details: female, BALB/c, mouse, plasma, sc, 50 mg/kg
Where a SMILES comes first, the peptide text is derived from it.
assay-endpoint: Tmax (min)
Express the result in min but write the number alone.

**Q:** Which measured Tmax value corresponds to C[C@H](N)C(=O)N[C@@H](CCC(=O)O)C(=O)N[C@@H](Cc1c[nH]c2ccccc12)C(=O)N[C@@H](CS)C(=O)N1CCC[C@H]1C(=O)O (H-AEWCP-OH) ?
**A:** 10

====

Assay: PK of TIPP via subcutaneous injection in mice
Conditions: female, BALB/c, mouse, plasma, sc, 50 mg/kg
Where a SMILES comes first, the peptide text is derived from it.
assay-endpoint: AUC(0-t)
Lab note: write values as number then unit, every time.

**Q:** Which measured AUC(0-t) value corresponds to C[C@H](N)C(=O)N[C@@H](CCC(=O)O)C(=O)N[C@@H](Cc1c[nH]c2ccccc12)C(=O)N[C@@H](CS)C(=O)N1CCC[C@H]1C(=O)O (H-AEWCP-OH) ?
**A:** 133 ng·h/mL

====

Assay: PK of TIPP via subcutaneous injection in mice
Settings: female, BALB/c, mouse, plasma, sc, 50 mg/kg
Where a SMILES comes first, the peptide text is derived from it.
assay-endpoint: AUC(0-inf)
Lab note: write values as number then unit, every time.

**Q:** Which measured AUC(0-inf) value corresponds to C[C@H](N)C(=O)N[C@@H](CCC(=O)O)C(=O)N[C@@H](Cc1c[nH]c2ccccc12)C(=O)N[C@@H](CS)C(=O)N1CCC[C@H]1C(=O)O (H-AEWCP-OH) ?
**A:** 136 ng·h/mL

====

Test: PK of TIPP via subcutaneous injection in mice
Settings: female, BALB/c, mouse, plasma, sc, 50 mg/kg
Where a SMILES comes first, the peptide text is derived from it.
assay-endpoint: half-life (min)
Express the result in min but write the number alone.

**Q:** Which measured half-life value corresponds to C[C@H](N)C(=O)N[C@@H](CCC(=O)O)C(=O)N[C@@H](Cc1c[nH]c2ccccc12)C(=O)N[C@@H](CS)C(=O)N1CCC[C@H]1C(=O)O (H-AEWCP-OH) ?
**A:** 5.99

====

Test: PK of TIPP via subcutaneous injection in mice
Details: female, BALB/c, mouse, plasma, sc, 50 mg/kg
Where a SMILES comes first, the peptide text is derived from it.
assay-endpoint: level at 40 min

**Q:** Which measured level at 40 min value corresponds to C[C@H](N)C(=O)N[C@@H](CCC(=O)O)C(=O)N[C@@H](Cc1c[nH]c2ccccc12)C(=O)N[C@@H](CS)C(=O)N1CCC[C@H]1C(=O)O (H-AEWCP-OH) ?
**A:** ~20 ng/mL
